Reference source: paper PMC10630886

Biological target: T1, 6xHis-tagged GIPC1 construct (UniProt O14908 1-333)
T1 construct: also called recombinant GIPC1; source: recombinant; prepared as described previously (PMID: 27386966)
T1 sequence (looked up): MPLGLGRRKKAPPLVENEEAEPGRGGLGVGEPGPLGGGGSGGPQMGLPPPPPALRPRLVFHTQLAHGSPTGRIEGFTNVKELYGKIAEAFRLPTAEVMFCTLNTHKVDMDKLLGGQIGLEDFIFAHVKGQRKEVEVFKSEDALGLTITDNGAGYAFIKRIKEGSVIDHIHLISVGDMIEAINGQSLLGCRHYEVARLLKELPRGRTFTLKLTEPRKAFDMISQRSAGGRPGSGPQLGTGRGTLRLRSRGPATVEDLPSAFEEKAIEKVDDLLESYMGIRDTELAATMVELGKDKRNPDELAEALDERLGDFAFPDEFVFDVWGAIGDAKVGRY
Experiment: SPR; BIAcore T200, 25°C; 100 RU of biotinylated endoglin peptide immobilised on a streptavidin chip; His-tagged protein perfused (0.5 to 120 μM) at 30 μl/min in 10 mM HEPES pH 7.4, 150 mM NaCl, 0.005% Tween 20; apparent KD from equilibrium responses, Langmuir isotherm
Conditions: both partners purified
No end group written: not given here.
Outcome Measure: Kd (nM)
Give bare numbers, in nM.

Reported Kd, binder SSESSSTNHSIGSTQSTPCSTSSMA (also: biotinylated, position not given here, endoglin (CD105), last 25 C-terminal amino acids, wild type; also called endoglin cytosolic domain; immobilized peptide corresponding to the last 25 C-terminal amino acids of wild-type endoglin) [biotinylated peptide corresponding to the last 25 amino acids of endoglin wild-type] : ____
2400
